Hey, just so you know, these numbers are from paper PMC5099554.

details: healthy male subjects, plasma
Parameter measured: AUClast, geometric mean ratio, After FRG: Before FRG (90% CI)

- Molecule: "CN1CC[C@@]23CCCC[C@@H]2[C@@H]1Cc1ccc(O)cc13"
  Recorded value: "1.044 (0.926–1.176)"
- Molecule: "CCCCc1nc(Cl)c(C(=O)O)n1Cc1ccc(-c2ccccc2-c2nn[nH]n2)cc1"
  Recorded value: "0.811 (0.684–0.963)"
- Molecule: "COc1ccc2nc([S+]([O-])Cc3ncc(CO)c(OC)c3C)[nH]c2c1 (stereo not shown) [5‐hydroxyomeprazole]"
  Recorded value: "0.979 (0.918–1.045)"
- Molecule: "Cn1c(=O)[nH]c2ncn(C)c2c1=O"
  Recorded value: "1.017 (0.943–1.096)"
- Molecule: "COc1ccc2[nH]c([S+]([O-])Cc3ncc(C)c(OC)c3C)nc2c1 (stereo not shown)"
  Recorded value: "0.931 (0.812–1.067)"
- Molecule: "Cn1c(=O)c2c(ncn2C)n(C)c1=O"
  Recorded value: "1.128 (0.997–1.277)"
- Molecule: "COc1ccc2c(c1)[C@]13CCCC[C@@H]1[C@H](C2)N(C)CC3"
  Recorded value: "0.907 (0.681–1.209)"
- Molecule: "CCCCc1nc(Cl)c(CO)n1Cc1ccc(-c2ccccc2-c2nn[nH]n2)cc1"
  Recorded value: "1.048 (0.887–1.239)"
- Molecule: "Cc1ncc2n1-c1ccc(Cl)cc1C(c1ccccc1F)=NC2"
  Recorded value: "1.157 (1.022–1.309)"
- Molecule: "OCc1ncc2n1-c1ccc(Cl)cc1C(c1ccccc1F)=NC2 [1‐hydroxymidazolam]"
  Recorded value: "0.944 (0.805–1.107)"

====

conditions: male, human, in vivo, AUCinf, geometric mean, Before FRG, healthy male subjects, plasma, before fermented red ginseng
Mark Satisfied only for AUC(0-inf) values smaller than 500 ng·h/mL; exact matches and larger values are Not satisfied.

- Molecule: "CN1CC[C@@]23CCCC[C@@H]2[C@@H]1Cc1ccc(O)cc13 [Dextrorphan, dextrorphan]"
  Qualitative label: "Satisfied"
- Molecule: "CCCCc1nc(Cl)c(CO)n1Cc1ccc(-c2ccccc2-c2nn[nH]n2)cc1 [Losartan, losartan]"
  Qualitative label: "Not satisfied"
- Molecule: "CCCCc1nc(Cl)c(C(=O)O)n1Cc1ccc(-c2ccccc2-c2nn[nH]n2)cc1 [EXP3174]"
  Qualitative label: "Not satisfied"
- Molecule: "Cn1c(=O)[nH]c2ncn(C)c2c1=O [Paraxanthine, paraxanthine]"
  Qualitative label: "Not satisfied"
- Molecule: "COc1ccc2c(c1)[C@]13CCCC[C@@H]1[C@H](C2)N(C)CC3 [Dextromethorphan, dextromethorphan]"
  Qualitative label: "Satisfied"
- Molecule: "Cc1ncc2n1-c1ccc(Cl)cc1C(c1ccccc1F)=NC2 [Midazolam, midazolam]"
  Qualitative label: "Satisfied"
- Molecule: "COc1ccc2[nH]c([S+]([O-])Cc3ncc(C)c(OC)c3C)nc2c1 (centres unmarked) [Omeprazole, omeprazole]"
  Qualitative label: "Not satisfied"
- Molecule: "Cn1c(=O)c2c(ncn2C)n(C)c1=O [Caffeine, caffeine]"
  Qualitative label: "Not satisfied"
